Measured Tm of individual entries
System: double-stranded hairpin DNA: 5′-d(GGCAGAAGAAAAAGAGACGC)-C18 spacer-d(GCGTCTCTTTTTCTTCTGCC)-3′ (SEQ ID NO: 23)
Experiment: Melting temperature (Tm) measurement, triple strand-forming ability, with double-stranded hairpin DNA
Type: binding
Details: triplex with double-stranded hairpin DNA; footnote: 10 mM sodium phosphate buffer (pH 7.0), 200 mM NaCl, 5 mM MgCl2

Substance	Tm [°C]
5′ -TCTTCTXXXTCTCT-3′: modified oligonucleotide with three consecutive X modifications (DNA TCTTCTTTTTCTCT; three X modified nucleotides; (2)..(2) 2′-Deoxy-5-methylcytidine; (5)..(5) 2′-Deoxy-5-methylcytidine; misc_difference (7)..(7) Me-TaNA; misc_difference (8)..(8) Me-TaNA; misc_difference (9)..(9) Me-TaNA; (11)..(11) 2′-Deoxy-5-methylcytidine; (13)..(13) 2′-Deoxy-5-methylcytidine)	50
5′ -TCTTCTTTTTCTCT-3′: unmodified triplex-forming oligonucleotide; C shows 2′-deoxy-5-methylcytidine (DNA, all C 5-methyl, backbone not given here; triplex-forming oligonucleotide)	31
5′ -TCTTCTZZZTCTCT-3′: modified oligonucleotide with three consecutive Z modifications (DNA TCTTCTTTTTCTCT; three Z modified nucleotides; (2)..(2) 2′-Deoxy-5-methylcytidine; (5)..(5) 2′-Deoxy-5-methylcytidine; misc_difference (7)..(7) ENA; misc_difference (8)..(8) ENA; misc_difference (9)..(9) ENA; (11)..(11) 2′-Deoxy-5-methylcytidine; (13)..(13) 2′-Deoxy-5-methylcytidine)	48
5′ -TCTTCYTYTYCTCT-3′: modified oligonucleotide with three separated Y modifications (DNA TCTTCTTTTTCTCT; three Y modified nucleotides; (2)..(2) 2′-Deoxy-5-methylcytidine; (5)..(5) 2′-Deoxy-5-methylcytidine; misc_difference (6)..(6) LNA; misc_difference (8)..(8) LNA; misc_difference (10)..(10) LNA; (11)..(11) 2′-Deoxy-5-methylcytidine; (13)..(13) 2′-Deoxy-5-methylcytidine)	51
